Tested on: MDA-MB-435
PROTOCOL: NCI tumour cell line growth inhibition, 48 h; in the data active means GI50 below about 0.43 µM; inactive means the rest
API: response.call in active, inactive

// known answers, use as guide
• O=S(=O)(NC1=NCCN1C(=S)SN1CCn2c1nsc2=S)c1ccc(Cl)cc1 = inactive
• Cn1c(COC(=O)NCCc2ccccn2)nc2c(N3CCOCC3)nc(Cl)nc21 = inactive
• [N-]=[N+]=CC(=O)CCC(N)C(=O)O (centres undefined) = inactive
• COc1cc(C2CC(c3ccc(Nc4nc(NCCO)nc(NCCO)n4)cc3)=NN2c2cc(Cl)cc(Cl)c2)cc(OC)c1OC (centres undefined) = inactive
• COc1ccc(-n2cc(-c3ccc(OC)c(OC)c3)[nH]c2=O)cc1 = inactive
• COc1ccc(-n2c(=S)sc3c(Cl)nc(C)nc32)c(OC)c1 = inactive
• COc1cc2c(cc1OCCNC(=O)/C=C1\C[C@H]3C=Nc4cc(OCc5ccccc5)c(OC)cc4C(=O)N3C1)N=C[C@@H]1CCCN1C2=O = inactive
• CCOC(=O)NC(=S)N(CC(=O)c1cc(OC)c(OC)c(OC)c1)c1ccc(Cl)cc1 = inactive

Here is another compound to look at.
Query block: What was the test verdict on COc1cc2c(/C=C3\C(=O)Nc4ccccc43)c[nH]c2cc1C ?
Result block: active
